test-details: Metabolic stability in rat liver microsomes assessed as parent compound remaining at 10 uM preincubated for 10 mins followed by NADPH addition measured after 30 mins by liquid chromatographic method
Assay type: ADME, microsome
run-conditions: 0.5 h
Quick reference for Stability among some molecules
Hi! Could you send only the number? It should be in %, unit omitted.

Here is how some molecules turned out for Stability.
N#Cc1ccc(C[C@H](NC(=O)Nc2ccc([N+](=O)[O-])cc2)C(=O)NCC2(c3ccccc3)CC2)cc1 = 56
N#Cc1ccc(C[C@@H](NC(=O)Nc2ccc(F)cc2)C(=O)NCC2(c3ccc(F)c(Cl)c3)CC2)cc1 = 20
O=C(Nc1ccc([N+](=O)[O-])cc1)N[C@@H](Cc1c[nH]c2ccccc12)C(=O)NCC1(c2ccccc2)CC1 = 11

Query: Value lookup for Stability; key = O=C(Nc1ccc([N+](=O)[O-])cc1)N[C@H](Cc1cccnc1)C(=O)NCC1(c2ccccc2)CC1
Response: 45

* * *

measured-on: N-formyl peptide receptor 2 (Homo sapiens, UniProt P25090)
test-details: Agonist activity at human FPR2 expressed in human HL60 cells assessed as induction of calcium mobilization measured every 5 secs for 240 secs by Fluo-4-AM dye based fluorometric method
Type: functional, cell-based
run-conditions: read-out: EC50
Quick reference for log10(EC50) among some compounds
Heads up, the numbers here are log10 of EC50 in nM units.

Query: Value lookup for log10(EC50); key = O=C(Nc1ccccc1)N[C@@H](Cc1c[nH]c2ccccc12)C(=O)NCC1(c2ccccc2)CC1
Response: 3.83

Query: Value lookup for log10(EC50); key = Cc1ccc(C2(CNC(=O)[C@H](Cc3ccc(C#N)cc3)NC(=O)Nc3ccc(F)cc3)CC2)cc1F
Response: 3.48

Query: Value lookup for log10(EC50); key = COc1ccc(NC(=O)N[C@@H](Cc2c[nH]c3ccccc23)C(=O)NCC2(c3ccccc3)CC2)cc1
Response: 2.04

Query: Value lookup for log10(EC50); key = O=C(Nc1ccc(F)cc1)N[C@@H](Cc1c[nH]c2ccccc12)C(=O)NCC1(c2ccccc2)CC1
Response: 3.30

Query: Value lookup for log10(EC50); key = N#Cc1ccc(C[C@H](NC(=O)Nc2ccc(F)cc2)C(=O)NCC2(c3ccc(F)c(Cl)c3)CC2)cc1
Response: 3.59

* * *

measured-on: fMet-Leu-Phe receptor (Homo sapiens)
Sequence (P21462 whole entry): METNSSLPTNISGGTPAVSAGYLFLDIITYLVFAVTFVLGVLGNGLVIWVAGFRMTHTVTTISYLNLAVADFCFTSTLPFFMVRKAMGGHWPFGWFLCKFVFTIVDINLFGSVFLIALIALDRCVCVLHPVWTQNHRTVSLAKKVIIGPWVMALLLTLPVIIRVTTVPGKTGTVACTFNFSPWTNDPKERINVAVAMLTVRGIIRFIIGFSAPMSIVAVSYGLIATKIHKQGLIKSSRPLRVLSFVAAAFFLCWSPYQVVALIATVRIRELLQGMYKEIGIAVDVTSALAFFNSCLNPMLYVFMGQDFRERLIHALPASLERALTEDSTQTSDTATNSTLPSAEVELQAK
test-details: Agonist activity at human FPR1 expressed in human HL60 cells assessed as induction of calcium mobilization
Format: functional, cell-based
recorded-endpoint: pEC50
Please note pEC50 is a logarithmic value: minus log10 of concentration in mol/L. Answer with that number alone.

Query: Value lookup for pEC50; key = COc1ccc(NC(=O)N[C@@H](Cc2c[nH]c3ccccc23)C(=O)NCC2(c3ccc(OC)cn3)CCCCC2)cc1
Response: 6.59

* * *

Quick reference for EC50 among some compounds
measured-on: fMet-Leu-Phe receptor (Homo sapiens, UniProt P21462)
Sequence (P21462 whole entry): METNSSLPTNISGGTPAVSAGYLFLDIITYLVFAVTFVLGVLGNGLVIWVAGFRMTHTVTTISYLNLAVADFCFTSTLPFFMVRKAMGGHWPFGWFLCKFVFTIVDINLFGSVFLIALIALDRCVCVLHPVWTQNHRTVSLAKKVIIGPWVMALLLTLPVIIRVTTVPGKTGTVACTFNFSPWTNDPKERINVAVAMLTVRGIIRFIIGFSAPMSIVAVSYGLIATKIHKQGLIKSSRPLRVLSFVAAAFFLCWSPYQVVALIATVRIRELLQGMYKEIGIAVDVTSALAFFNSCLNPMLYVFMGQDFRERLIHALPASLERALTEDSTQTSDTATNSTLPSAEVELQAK
test-details: Agonist activity at human FPR1 expressed in human HL60 cells assessed as induction of calcium mobilization measured every 5 secs for 240 secs by Fluo-4-AM dye based fluorometric method
Type: functional, cell-based
run-conditions: read-out: EC50

COc1ccc(NC(=O)N[C@H](Cc2ccc(C#N)cc2)C(=O)NCC2(c3ccc(F)c(Cl)c3)CC2)cc1 = 630 nM
COc1ccc(NC(=O)N[C@@H](Cc2ccc(C#N)cc2)C(=O)NCC2(c3ccc(F)c(Cl)c3)CC2)cc1 = 450 nM
O=C(Nc1ccc([N+](=O)[O-])cc1)N[C@@H](Cc1cccnc1)C(=O)NCC1(c2ccccc2)CC1 = 850 nM
N#Cc1ccc(C[C@@H](NC(=O)Nc2ccc(F)cc2)C(=O)NCC2(c3ccc(F)c(Cl)c3)CC2)cc1 = 5400 nM

Query: Value lookup for EC50; key = N#Cc1ccc(C[C@H](NC(=O)Nc2ccc(F)cc2)C(=O)NCC2(c3ccc(F)c(Cl)c3)CC2)cc1
Response: 5200 nM

* * *

Quick reference for pEC50 among some compounds
measured-on: N-formyl peptide receptor 2 (Homo sapiens, UniProt P25090)
test-details: Agonist activity at FPR2 in human neutrophils assessed as induction of calcium mobilization measured every 5 secs for 240 secs by Fluo-4-AM dye based fluorometric method
Type: functional
run-conditions: read-out: EC50
Please note pEC50 is a logarithmic value: minus log10 of concentration in mol/L. Answer with that number alone.

O=C(Nc1ccccc1)N[C@@H](Cc1c[nH]c2ccccc12)C(=O)NCC1(c2ccccc2)CC1 = 5.82
COc1ccc(NC(=O)N[C@@H](Cc2ccc(C#N)cc2)C(=O)NCC2(c3ccc(C)c(F)c3)CC2)cc1 = 5.77

Query: Value lookup for pEC50; key = COc1ccc(NC(=O)N[C@@H](Cc2c[nH]c3ccccc23)C(=O)NCC2(c3ccccc3)CC2)cc1
Response: 5.85

Query: Value lookup for pEC50; key = O=C(Nc1ccc([N+](=O)[O-])cc1)N[C@@H](Cc1cccnc1)C(=O)NCC1(c2ccccc2)CC1
Response: 6.14

* * *

measured-on: N-formyl peptide receptor 2 (Homo sapiens)
Sequence (P25090 whole entry): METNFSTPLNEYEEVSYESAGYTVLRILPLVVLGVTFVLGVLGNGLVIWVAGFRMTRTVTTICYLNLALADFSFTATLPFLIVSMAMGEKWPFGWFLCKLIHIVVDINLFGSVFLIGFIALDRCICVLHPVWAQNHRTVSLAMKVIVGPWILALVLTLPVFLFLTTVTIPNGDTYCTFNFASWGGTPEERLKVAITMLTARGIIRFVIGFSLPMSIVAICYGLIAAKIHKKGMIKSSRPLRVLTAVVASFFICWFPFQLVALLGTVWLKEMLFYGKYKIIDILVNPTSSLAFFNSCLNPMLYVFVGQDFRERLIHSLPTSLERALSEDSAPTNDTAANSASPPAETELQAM
test-details: Agonist activity at human FPR2 expressed in human HL60 cells assessed as induction of calcium mobilization measured every 5 secs for 240 secs by Fluo-4-AM dye based fluorometric method
Assay type: functional, cell-based
run-conditions: read-out: EC50
Quick reference for log10 EC50 among some compounds
Heads up, the numbers here are log10 of EC50 in µM units.

Here is how some compounds turned out for log10 EC50.
COc1ccc(NC(=O)N[C@H](Cc2ccc(C#N)cc2)C(=O)NCC2(c3ccc(F)c(Cl)c3)CC2)cc1 = 0.26
N#Cc1ccc(C[C@@H](NC(=O)Nc2ccc([N+](=O)[O-])cc2)C(=O)NCC2(c3ccccc3)CC2)cc1 = 0.18
O=C(Nc1ccc([N+](=O)[O-])cc1)N[C@H](Cc1cccnc1)C(=O)NCC1(c2ccccc2)CC1 = 0.46

Query: Please state recorded log10 EC50 (tested on N-formyl peptide receptor 2 (Homo sapiens)) of COc1ccc(NC(=O)N[C@@H](Cc2ccc(C#N)cc2)C(=O)NCC2(c3ccc(F)c(Cl)c3)CC2)cc1
Response: 0.53

Query: Please state recorded log10 EC50 (tested on N-formyl peptide receptor 2 (Homo sapiens)) of N#Cc1ccc(C[C@H](NC(=O)Nc2ccc([N+](=O)[O-])cc2)C(=O)NCC2(c3ccccc3)CC2)cc1
Response: -0.20

Query: Please state recorded log10 EC50 (tested on N-formyl peptide receptor 2 (Homo sapiens)) of N#Cc1ccc(C[C@@H](NC(=O)Nc2ccc(F)cc2)C(=O)NCC2(c3ccc(F)c(Cl)c3)CC2)cc1
Response: -0.52

Query: Please state recorded log10 EC50 (tested on N-formyl peptide receptor 2 (Homo sapiens)) of COc1ccc(NC(=O)N[C@H](Cc2c[nH]c3ccccc23)C(=O)NCC2(c3ccccc3)CC2)cc1
Response: 0.81

Query: Please state recorded log10 EC50 (tested on N-formyl peptide receptor 2 (Homo sapiens)) of COc1ccc(NC(=O)N[C@@H](Cc2ccc(C#N)cc2)C(=O)NCC2(c3ccc(C)c(F)c3)CC2)cc1
Response: 1.21

Query: Please state recorded log10 EC50 (tested on N-formyl peptide receptor 2 (Homo sapiens)) of O=C(Nc1ccc([N+](=O)[O-])cc1)N[C@@H](Cc1cccnc1)C(=O)NCC1(c2ccccc2)CC1
Response: 0.81

Ref: ChEMBL document CHEMBL4130539
